Exercise: for every item that follows, state its recorded growth inhibition.
- assay.overview: NCI Yeast Anticancer Drug Screen. Data for the CLN2oe strain (AID 163);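 note: 0% = growth of vehicle-only control cultures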
- protocol.conditions: S. cerevisiae CLN2oe strain, at 100.0 µM, hits give high values
About 79,000 compounds went through this panel and 15% of them were active in at least one assay; those are over-represented in the sample as a whole.
Answers are plain numbers, in %.

Hi, could you look up growth inhibition for each item in my list?
1. CSc1nc(C)c(CCOC(C)=O)c(N=P(c2ccccc2)(c2ccccc2)c2ccccc2)n1
2. Nc1n[n+]([O-])c2ccc(Cl)cc2[n+]1[O-]
3. O=[N+]([O-])c1cc(S(=O)(=O)Nc2ccccc2)ccc1Nc1ccccc1
4. CCCCCCCCCCCCCCCCCC(=O)NCCCN(C)C
5. CC1=NOC(=O)/C1=C/c1ccc2c(c1)OCO2
6. CCN(CC)CCOc1cc(C)c2cc(Cc3ccccc3)ccc2n1
7. C/C(=N\Nc1ccc([N+](=O)[O-])cc1[N+](=O)[O-])c1sc(-n2nc(-c3ccccc3)cc2-c2ccccc2)nc1C

# output
1: 77; 2: 95; 3: 76; 4: 97; 5: 9; 6: 52; 7: 26

* * *

- assay.overview: NCI Yeast Anticancer Drug Screen. Data for the CLN2oe strain (AID 163);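 note: 0% = growth of vehicle-only control cultures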
- protocol.conditions: S. cerevisiae CLN2oe strain, at 11.0 µM
The panel holds about 79,000 compounds, 15% with a hit somewhere; the sample as a whole holds those more often. Active and inactive are the calls of the source. No stated cut-off is given here; in the data, active means growth inhibition above about 70%; inactive means the rest.
Outcomes you can answer with include only these: class 1 (active), class 0 (inactive)

# example entries with known answers
O=C(O)CCCC1CCCc2c1ccc1ccccc21 (stereo unspecified) | class 0
CNC(=O)OCc1c(COC(=O)NC)c(-c2ccc(Cl)cc2)n2c1CCC2 | class 0
Cc1cc2cc3cc(C)c(N)cc3nc2cc1N | class 0
CC(C)/C(Cl)=N\OC(=O)Nc1ccc(F)cc1F | class 0
COC(=O)NC1C(C)OC(OC2C/C=C(/C)C3C=CC4C(OC5CC(OC6CC(O)C(OC7CC(O)C(OC)C(C)O7)C(C)O6)C(O)C(C)O5)C(C)CC(C)C4C3(C)/C(O)=C3\C(=O)OC4(CC(C)C(CO)=CC4/C=C\2C)C3=O)CC1(C)[N+](=O)[O-] (stereo unspecified) | class 0
O=c1[nH]c(-c2ccccc2)nc2c1sc1nc3ccccc3n12 | class 0
Cc1c2cccc(Sc3ccccc3)c2c2c3c(cccc13)[S+](c1ccccc1)C2 (stereo unspecified) | class 1
COC(C(O)CO)C(O)C(O)C(=O)NNc1ccccc1 (stereo unspecified) | class 0

Would you kindly look at the next entry?
# input Recorded call for `COc1cccc(/C=N/C(/N=C/c2cccc(OC)c2O)c2cccc(OC)c2O)c1O` ?
# output class 0

* * *

- assay.overview: NCI Yeast Anticancer Drug Screen. Data for the mgt1 strain (AID 153)
- protocol.conditions: S. cerevisiae mgt1 mutant growth inhibition; at 33.0 µM
The panel holds about 79,000 compounds, 15% with a hit somewhere; the sample as a whole holds those more often. Active and inactive are the calls of the source. No stated cut-off is given here; in the data, active means growth inhibition above about 70%; inactive means the rest.
Outcomes you can answer with include only these: active, inactive

# example entries with known answers
c1ccc2[nH]c(-c3cscn3)nc2c1 | inactive
CCCCCCCCCCCCCCCCOP(=O)(O)OCC(N)C(=O)O (stereo not given) | active
CNCCCNc1c2ccccc2nc2cccc([N+](=O)[O-])c12 | active
Nc1ccc2c(c1)C(=O)c1ccc(F)cc1-2 | inactive
CCCCc1nnc(NS(=O)(=O)c2ccc(C)cc2)s1 | inactive

# input Recorded call for `CN1CCN(C(=O)/C=C/C(=O)c2ccccc2)CC1` ?
# output active

# input Recorded call for `CN(C)Cc1cc(N=Nc2ccc(Cl)cc2)ccc1OC(=O)c1ccccc1` ?
# output inactive

# input Recorded call for CC1CC(C)(C)CC(OCCN2CCCCC2)(c2ccccc2)C1 (stereo not given) ?
# output inactive

# input Recorded call for `CCN(CC)CCN(C)CCc1ccc(Br)cc1` ?
# output active

# input Recorded call for `CC(=O)Nc1ccc2c(c1)Cc1cc(N=C3C=CC(=O)O3)ccc1-2` ?
# output active

Every entry's value here was drawn from PubChem BioAssay (NCI).
